- System: PXR:RXRa (NR concentration 270 nM, RXRa partner concentration 90 nM)
- test method notes: PBM binding z-score (relative to random genomic background probes); higher = stronger binding; sequences stand for … in GC…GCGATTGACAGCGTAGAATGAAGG
Parameter threshold = 3. Response is Satisfied when PBM binding z-score meets or exceeds it, else Not satisfied.

| seq string | group |
| --- | --- |
| TCGAGTAGGTTACCAATTGGGCATTCAGCTTTCT | Not satisfied |
| CTCGAAAGGTCGTGCTCAGGAGAGTATACCAAAC | Not satisfied |
| TCACCAAGGTGAAGGTCGTTGATCCCTCTGTAGA | Not satisfied |
| ATCGAAAAGTCGACGAGGTGAGTATACACCGTTT | Not satisfied |
| TTACCCAGGTGAAAGGTCGTTGATGCACGCCTTG | Satisfied |
| GATACAGGGTCAGCTAAAGGCCAGAGTATGGAAA | Not satisfied |
| TCTGCTCGGTCAACGATGGTCAGCTAATCTGCTA | Not satisfied |
| TAGCCTAGGTCATTGGGCCAGTCTAGTACGCATC | Not satisfied |
| TCATATAGGTAATACATGTGAAAGTCGGCATCTA | Not satisfied |
| CCTTATGGGTCAAGGTTATAGCACGGGTGGTACG | Not satisfied |
| GCTCACGGGTCAAAGGTTATAGCATGAATAGAAT | Satisfied |
| ACTCGCAGGCCAAGGGTCACTCAAGATTAGTCCG | Satisfied |

* * *

- Tested on: LXRa homodimer (NR concentration 270 nM)
- test method notes: PBM binding z-score (relative to random genomic background probes); higher = stronger binding; sequences stand for … in GC…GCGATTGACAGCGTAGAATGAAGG
Catalogue of PBM binding z-score readings, one per entry.
value kind: PBM binding z-score

| seq string | experimental result |
| --- | --- |
| TTAGCAAGGTGAAGGTCGTTGATCCCTCTGTAGA | -0.45 |
| GCTGCTAGGTCAGGTGGGTCAGCTAACGGGTACG | -0.394 |
| CCTTACGGATCACGAGGTTATAGCACGACGAGCG | 0.818 |
| TAGCCTAGGTCATTGGGCCAGGATAGTACGCATC | 0.159 |
| GCATATATGTAATACAAGGTGAAAGTCCGATTGT | 0.269 |
| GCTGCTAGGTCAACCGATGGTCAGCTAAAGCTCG | -0.00824 |

* * *

- Tested on: PPARg:RXRa 90nM:30nM, anti-RXR (NR concentration 90 nM, RXRa partner concentration 30 nM)
- test method notes: PBM binding z-score (relative to random genomic background probes); higher = stronger binding; sequences stand for … in GC…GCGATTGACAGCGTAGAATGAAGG
Parameter threshold = 3. Response is Condition met when PBM binding z-score meets or exceeds it, else Condition not met.

| seq string | group |
| --- | --- |
| ATCTCTAGGTAAAGTTCAGTCAAAGATCGATAGA | Condition met |
| AGAAGGAGGTTAAGATCAGGGAAACAGAATACAT | Condition not met |
| CAAACTAGGTCAAGAGGTCACAGTCCGCTTCCCG | Condition met |
| GCTGCTAGGTCAGGTTGGTCAGCTCACGGGTACG | Condition not met |
| CATTACGGGTCACTCCAGGTTATAGCATCGGAGT | Condition met |
| GTACCAAGGCGAATAGGTCGTTGATGAGTAGGCG | Condition not met |
| TCTAGCAGGCCAGTGGGTCACTCAAGAGGTACGG | Condition not met |
| ACTATTAGTTGACTTAGGGTAACCGATACGACGC | Condition not met |
| ACAGACAGTTGATGAAGGTAACTCAGGCTATCAT | Condition not met |
| CCTCCTGGGCCATTCAGAGGTCATTGATCATATG | Condition not met |
| ACAGACAGGTGAGTGAAGATAACTCAGCTGGACG | Condition not met |
| CCAGACAGGTGAGACGGTAACTCAGCCTCGATTA | Condition not met |
| GCTTGTAGATCAAGGTTAAGAAAGACTAAGCTAA | Condition not met |
| CCTTACGGGTCACTAGGTTATAGCACGACGAGCG | Condition met |
| ATCTCTAGGTAAGACTCATTTCAGTGAAGAACGC | Condition not met |
| ACTGACAGGTGATGAAGGTAACTCAGGCTATCAT | Condition not met |
| CATACAGGGTCTGCTAGGCCAGAGTAGGGACGGC | Condition not met |
| ACTATTAGTTGACTTAGGGCAACTGATACGACGC | Condition not met |
| TTTTGTAGATCAACAGGAGGTTAAGAAAGATCGA | Condition not met |
| CCTTACGGATCACTGACAGGTTATAGCATTTGGA | Condition not met |
| ATATGTAGGTTACATCCGGGTGATTCAGGCTATG | Condition met |
| CCTCGGATGACAGAAGGTCAGAGCTGTCCGCTTT | Condition not met |
| AATACAGGGTCATCGTAGGCGAGAGTACGCACAG | Condition met |
| GCTATTAGTTGAAAGGGCAACTGAATGATTCTCG | Condition met |
| CGTCAAAGTTCGACTAAGGTAACGTAAAGCACGC | Condition not met |
| AATACAGGGTCATCGTAGGCCATAGTACGCACAG | Condition met |
| GGTATTAGTTGAAAGGGCAACCGAATGATTCTCG | Condition met |
| CCTCTGAGGACAACAGGAGGTCAGAGCTGCCAGA | Condition not met |
| GGAACGAGGGCATTCGATTTGATAGCATGGCGAT | Condition not met |
| CCTTACGGGTCAAGGATATAGCACGGGTGGTACG | Condition not met |
| CCTTACGGGTCAAGGTGATAGCACGGGTGGTACG | Condition met |
| CGTCCAAGGTCAAGTTCAGTGAAAGAGACTCGAA | Condition met |
| ACTCGGAGGACAAAGGTCAGCGCTACGCCAGTGA | Condition met |
| GCTAGTTGCTCAGTAAAAGGTCACACACCGGTCG | Condition not met |
| ACAGATAGGTGAGTGAAGGTAACTCAGCTGGACG | Condition not met |
| AGAATGAGGTTATTAACATCAGGGAATTGCGGTC | Condition not met |
| TTACCAAGGTGAAAGGTGGTTGATGCACGCCTTG | Condition met |
| CGTGCTAGGTCATGGTCAGCTAATCTACAGTATG | Condition not met |
| CCTTACGGGTCAATGTTATAGCACGGGTGGTACG | Condition not met |
| ATATGTAGGTTAAGGGACATTCAGGTTGGTTCGC | Condition met |
| TCATATAGGTAATACAGGTGAACGTCGGCATCTA | Condition met |
| GCTAGCAGTCCATTTGGGTCACTCAATGACGGGC | Condition not met |
| TCAGACAGGTGAAGGTGACTCAGGTACGCAGTCG | Condition not met |
| TAGCCTAGGTCATGGGCCAGCATACCACGCGAAC | Condition not met |
| CACACAGGGTCAGCTAGGCCAGAGTAGGGACGGC | Condition not met |
| CCTACTGGTCCATCAGGTCATTGATATCAACGTT | Condition not met |
| ACTAGCTGGCCAAGTTTGGGTCACTCAAACAAAG | Condition not met |
| TCTTGTAGATCAATAGAGGTTCAGAAAGTGCGCT | Condition not met |
| CCTAGTTGGTCAGGAGGTCGCACACCGGATATGA | Condition not met |
| CGTCAAAGTTCAAGGTACCGTAACAGAAAGCAGC | Condition met |
